Data provenance is ChEMBL document CHEMBL5665443.

# assay system: N-glycosylase/DNA lyase (Homo sapiens) (UniProt O15527);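 also: OGG1 cleavage of a quenched duplex DNA oligonucleotide, coupled to APE1 for strand incision, read as fluorescence at 594 nm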
# Sequence (O15527 whole entry): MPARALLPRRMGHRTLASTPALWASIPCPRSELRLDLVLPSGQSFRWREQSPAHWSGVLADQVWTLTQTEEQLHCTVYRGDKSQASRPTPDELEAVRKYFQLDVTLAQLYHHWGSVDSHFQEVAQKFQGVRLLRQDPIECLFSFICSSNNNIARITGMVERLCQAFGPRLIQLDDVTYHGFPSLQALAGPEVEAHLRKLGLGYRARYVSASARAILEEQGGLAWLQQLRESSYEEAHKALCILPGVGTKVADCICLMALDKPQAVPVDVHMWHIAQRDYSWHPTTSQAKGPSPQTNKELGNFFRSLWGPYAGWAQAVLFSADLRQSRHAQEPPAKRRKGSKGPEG
# condition description: Compound Concentration 10.0 uM, Hit Yes
# Description: Inhibition of OGG1 by quantifying inhibition of OGG1-mediated cleavage and dissociation of quenched duplex DNA oligonucleotides, measured as fluorescence at 594 nm. To generate a functional strand incision and increase turn-over this assay is coupled to APE1.
inhibition below 60% gives not fulfilled; inhibition at or above it gives fulfilled.

- line notation: "N#Cc1c(N)nc(SCc2csc(-c3ccc(Cl)cc3)n2)c(C#N)c1-c1ccc(OCCO)cc1"
  class label: "not fulfilled"
- line notation: "CC(C)c1onc(-c2c(Cl)cccc2Cl)c1COc1ccc(/C=C/c2cccc(C(=O)O)c2)c(Cl)c1"
  class label: "fulfilled"
- line notation: "CN1CCN(c2ccc(Nc3c4ccccc4nc4ccccc34)cc2)CC1"
  class label: "fulfilled"

Reported inhibition reaches at least 60% for `O=C(O)c1ccc2cc(-c3ccc(O)c(C45CC6CC(CC(C6)C4)C5)c3)ccc2c1` ?
fulfilled

Reported inhibition reaches at least 60% for `COc1ccc(/C=C/CCCCOc2ccc(C(=O)c3cccc(C(=O)O)c3)cc2CCC(=O)O)cc1` ?
not fulfilled

Reported inhibition at or above 60%? `O=C(O)Cc1cccc(OCCCN(Cc2cccc(C(F)(F)F)c2Cl)CC(c2ccccc2)c2ccccc2)c1`
fulfilled

Please indicate if the recorded inhibition for `Cc1nc(-c2ccc(C(F)(F)F)cc2)sc1COc1ccc([C@H](CC(=O)O)c2ccon2)cc1` meets or exceeds 60%.
not fulfilled

Determine whether measured inhibition meets or exceeds 60% for `CC#C[C@@H](CC(=O)O)c1ccc(OCc2cccc(-c3ccc(C(F)(F)F)cc3)c2)cc1`
fulfilled

Decide: inhibition of `CC1(C)CCC[C@]2(C)[C@@H](C=O)C(C=O)=CC[C@@H]12` >= 60%?
fulfilled

---

# assay system: Endonuclease III-like protein 1 (Homo sapiens) (UniProt P78549)
# Sequence (P78549 whole entry): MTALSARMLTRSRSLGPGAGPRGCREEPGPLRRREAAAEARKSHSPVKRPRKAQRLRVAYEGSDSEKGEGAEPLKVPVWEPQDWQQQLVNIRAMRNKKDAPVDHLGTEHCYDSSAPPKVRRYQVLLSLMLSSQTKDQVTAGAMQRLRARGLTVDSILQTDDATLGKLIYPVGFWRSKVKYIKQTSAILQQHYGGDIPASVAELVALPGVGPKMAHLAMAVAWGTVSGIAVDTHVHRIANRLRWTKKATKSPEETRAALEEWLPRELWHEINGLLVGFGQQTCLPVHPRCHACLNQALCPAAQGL
# condition description: Compound Concentration 10.0 uM, Hit No
# Description: Inhibition of NTHL1 by quantifying inhibition of NTHL1-mediated cleavage and dissociation of quenched duplex DNA oligonucleotides, measured as fluorescence at 594 nm.
measured parameter: inhibition (%)
Answers are plain numbers, in %.

Solved cases (4 shown):
- molecule: "CN(C(=O)c1ccccc1)c1cc(N(C)c2ccc3c(c2)CCc2ccc(C(=O)NCCN4CCOCC4)cc2C3=O)ccc1F"
  assay system: "Endonuclease III-like protein 1 (Homo sapiens) (UniProt P78549)"
  inhibition / %: 3.6
- molecule: "O=c1cc(-c2cc(F)c(Cl)nc2Cl)[nH]c2c(-c3ccccc3)c(C(F)(F)F)nn12"
  assay system: "Endonuclease III-like protein 1 (Homo sapiens) (UniProt P78549)"
  inhibition / %: 8
- molecule: "NS(=O)(=O)c1cc(NC(=O)C2(c3ccccc3Cl)CC2)ccc1Oc1cccc(Cl)c1"
  assay system: "Endonuclease III-like protein 1 (Homo sapiens) (UniProt P78549)"
  inhibition / %: -7.86
- molecule: "CC(C)(C)c1ccc(NC(=O)N2CCN(c3ncccc3Cl)CC2)cc1"
  assay system: "Endonuclease III-like protein 1 (Homo sapiens) (UniProt P78549)"
  inhibition / %: 21.2

Dear colleague, could you send me inhibition for each of the items below? Thanks.
1. COc1ccc(CCCN2CCC(COC(c3ccccc3)c3ccccc3)CC2)cc1
2. N[C@@]1(C(=O)O)CC[C@H]2[C@H](C(=O)O)[C@H]21
3. O=C(N[C@H]1CN2CCC1CC2)c1ccc(Cl)cc1
4. CC[N+](CC)(CC)CCOc1ccc(/C=C/c2ccccc2)cc1

1. 13.8
2. 27.8
3. 15.4
4. 0.568

For every item below, please supply its inhibition.
1. c1nc(CC2CCNCC2)c[nH]1
2. Cc1ccc2c(c1CCC(=O)O)CC[C@@H](NS(=O)(=O)c1ccc(Cl)cc1)C2
3. CCOC(=O)c1ccc(CN(Cc2ccc(-c3cccc(S(C)(=O)=O)c3)cc2)S(=O)(=O)c2c(C)cc(C)cc2C)o1
4. CC(C)c1ccc(CC(=O)N[C@H](C)c2ccc(OCC(F)(F)F)cn2)cc1

7.05
15.1
-3.26
8

---

Can you tell me inhibition for the items I'm about to list?
# assay system: Endonuclease III-like protein 1 (Homo sapiens)
# condition description: Compound Concentration 10.0 uM, Hit No
Numbers only, in %.

- compound: "C=CC(=O)Nc1cccc(C(=O)Nc2ccc(Nc3cc(-c4[nH]c(S)nc4C)ccn3)cc2)c1"
  unit name: "%"
  inhibition: -6.89
- compound: "CN(c1ncccc1CNc1ccnc(-c2nc3c(F)c(Cl)ccc3[nH]2)n1)S(C)(=O)=O"
  unit name: "%"
  inhibition: 9.15
- compound: "COc1cccc(CNC(=O)c2nc3scc(CN(C)Cc4ccccc4)c3c(=O)[nH]2)c1"
  unit name: "%"
  inhibition: -9.83

Record inhibition for all entries; do not skip any.
1. CO[C@H]1CC[C@@H](C(=O)c2ccc3nc4c(cc3c2)CCCO4)CC1
2. NC(N)=Nc1nc(CSCC/C(N)=N/S(N)(=O)=O)cs1

[-6.5, -2.47]

---

# assay system: Single-strand selective monofunctional uracil DNA glycosylase (Homo sapiens);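 also: enzymatic SMUG1 assay coupled with APE1, reading fluorescence at 594 nm released when a quenched double-stranded DNA oligonucleotide substrate is cleaved and separated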
# Sequence (whole entry): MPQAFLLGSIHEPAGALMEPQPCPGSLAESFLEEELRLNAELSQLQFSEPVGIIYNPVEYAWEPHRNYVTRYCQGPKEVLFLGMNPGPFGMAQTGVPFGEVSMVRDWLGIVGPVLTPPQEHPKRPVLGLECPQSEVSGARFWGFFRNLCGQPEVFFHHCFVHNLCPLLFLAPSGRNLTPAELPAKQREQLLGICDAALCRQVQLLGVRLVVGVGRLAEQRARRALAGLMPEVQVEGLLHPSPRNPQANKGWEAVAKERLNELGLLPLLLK
# condition description: Compound Concentration 10.0 uM, Hit No
# Description: Inhibition of SMUG1 by quantifying inhibition of SMUG1-mediated cleavage and dissociation of quenched duplex DNA oligonucleotides, measured as fluorescence at 594 nm. To generate a functional strand incision and increase turn-over this assay is coupled to APE1.
measured parameter: inhibition (%)
Answers are plain numbers, in %.

- molecule: "O[C@H]1CC[C@H](Nc2ncc3nc(Nc4c(F)cc(F)cc4F)n([C@H]4CCOC4)c3n2)CC1"
  inhibition (%): 20.8
- molecule: "Brc1c(NC2=NCCN2)ccc2nccnc12"
  inhibition (%): -5.99
- molecule: "CC(C)(O)c1ccc2c(c1)ncn2-c1cccc(-c2ccccc2C#N)c1"
  inhibition (%): 1
- molecule: "CCn1cnc2c(-c3ccc(F)c(-c4ccc(S(=O)(=O)CC)cc4OC)c3)cnnc21"
  inhibition (%): 1.23
- molecule: "CCCC(=O)N[C@@H](Cc1ccc(O)cc1)C(=O)NCCCCCCCNCCCCN"
  inhibition (%): -0.749
- molecule: "O=C(O)c1n[nH]c2c1C[C@H]1C[C@@H]21"
  inhibition (%): -5.22
- molecule: "COCC(=O)NC/C=C/c1ccc2ncnc(Nc3ccc(Oc4ccc(C)nc4)c(C)c3)c2c1"
  inhibition (%): 21.7
- molecule: "COc1cc(C(=O)O)ncc1C#Cc1ccccc1NS(=O)(=O)c1cccc2c(N(C)C)ccnc12"
  inhibition (%): 6.29

For the 5 molecules below, give their inhibition values.
1. CC(C)(C)c1ccc2c(c1)CC[C@H]2NC(=O)Nc1cccc2[nH]ncc12
2. CCc1nnc(NS(=O)(=O)c2ccc(NC(=S)NC(=O)/C=C/c3ccc(F)cc3)cc2)s1
3. CCn1c(CNC(=O)c2ncc(C)nc2N)[n+](CC)c2ccc(C(=O)N(C)CCN(C)C)cc21
4. CN(C)c1ccnc2sc3c(=O)n(N4CCCCCC4)cnc3c12
5. CC(C1CC2CCC1C2)n1c(S)nnc1-c1ccco1 (centres undefined)

11.7
24.8
1.28
-6.77
13.7

Kindly give each listed record's inhibition.
1. O=C(NCC1(N2CCN(c3ccccc3)CC2)CCOCC1)c1cccnc1Sc1ccccc1
2. C=CC(=O)Nc1ccc2[nH]c(=O)n(C3CCN(Cc4ccc(-c5nc6cc[nH]c(=O)c6cc5-c5ccccc5)cc4)CC3)c2c1

1: 2.13; 2: 25.8

Provide inhibition values for the following items, in order.
1. CC(C)NC(=O)N1CC[C@H](NC2=Nc3cc(F)ccc3N(CC(F)F)c3ccc(Cl)cc32)C1
2. CNc1nc(-c2ccc3c(N)n[nH]c3c2)cc(N2C[C@@H](C(=O)NC3CCCCC3)CC[C@H]2C)n1
3. CC[C@H](CC(=O)O)n1c(=O)c2ncccc2n(Cc2cn(C)c3cc(C)cc(C)c23)c1=O
4. CC(C)(O)c1cn(-c2ccc(-c3cccc(S(C)(=O)=O)c3)cc2)c(C(C)(C)c2ccccc2Cl)n1
5. CC[C@H](Nc1c(C#N)c(-c2ccc(-c3cccc(C)c3F)cc2)nc2cnccc12)C(=O)O
6. CSc1cc2c(cc1C(F)(F)F)N(C(=O)Nc1cccnc1)CC2
7. O=C(NCC12CC3CC(CC(C3)C1)C2)c1ccccc1Cl
8. Cc1cc(OC2CCS(=O)(=O)CC2)cc(C)c1-c1cccc(COc2ccc(CCC(=O)O)c(F)c2)c1

1. 26.7
2. 20.7
3. -8.88
4. 17.1
5. 12
6. 4.28
7. -1.71
8. 12.1

// each molecule listed below needs its inhibition
1. Cc1cc(NC(=O)Nc2ccc(N(C)C)cc2)c2cc(F)cc(F)c2n1
2. FC(F)c1nc2ccccc2n1-c1nc(N2CCOCC2)nc(N2CCOCC2)n1
3. Cc1nnsc1C(=O)Nc1ccc(-n2nc(C(F)(F)F)cc2C(F)(F)F)cc1
4. CC(=O)C1=C(C)N(c2cccc(C(F)(F)F)c2)C(=O)N[C@@H]1c1ccc(C#N)nc1
5. COc1cc(C(=O)N(CCC2CCCN2C)C/C(C)=C/c2ccccc2F)cc(OC)c1OC (centres undefined)
6. COc1ccccc1-c1cc(Nc2cccc(CS(N)(=O)=O)c2)ncn1
7. CN(C)C(=O)c1cc2cnc(Nc3ccc(N4CCNCC4)cn3)nc2n1C1CCCC1
8. Cc1cccc([C@H]2CC[C@@H](N3CCN(c4cccnc4)CC3)CC2)c1 (mixture of isomers)

[-2.31, 27, 15.8, -3.19, -3.01, 19.3, 21.9, 15.5]
